# experimentNotes: STAT1 signaling activators, primary screen, cell-based, HTS, luciferase reporter (AID 932)
# studyConditions: NIH 3T3 STAT1-luciferase reporter, IFN-gamma, luminescence; at 5.5 µM; 100% = IFN-gamma alone, no compound
Screen size: about 200,000 compounds; about 5,100 (2.5%) were called active.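 Rule for the calls: active = activation above the screen-wide mean activation plus 3 SD (cut at about 130% in these data); inactive = the rest.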 This is one part of a sample in which actives are shown more often than they occur.
Classes used: active, inactive

| molecule | classLabel |
| --- | --- |
| C=CCNc1cnn(-c2ccc(C)cc2)c(=O)c1Cl | active |
| C#CCOCCOCCOCCNc1nc(N2CCN(C(=O)[C@H](C(C)C)n3cc(CCO)nn3)CC2)nc(N2CCN(C(=O)[C@H]([C@@H](C)CC)n3cc(CCCN=C(N)N)nn3)CC2)n1 | inactive |
| Cc1ccc(NC(=O)Nc2ccc3oc(C)nc3c2)cc1 | active |
| CCSC1=NCCN1C(=O)c1ccc(S(=O)(=O)N(CC)CC)cc1 | inactive |
| CC(=O)NS(=O)(=O)c1ccc(NC(=O)C2C3C=CC(C3)C2C(=O)O)cc1 (stereo unspecified) | inactive |
| CC(=O)c1cnc(SCCN2C(=O)c3ccccc3C2=O)nc1C | inactive |
| CCCNC(=O)c1ccc(Cl)c(Cl)c1 | inactive |
| Cc1ccccc1-n1cc(CNC(=O)CC2C(=O)NCCN2C/C=C/c2ccccc2)cn1 (stereo unspecified) | inactive |
| c1ccc2cc3c(NCCN4CCOCC4)ccnc3cc2c1 | active |
| COc1cc(C(=O)N[C@@H](C)C(=O)NCc2ccco2)cc(OC)c1OC | inactive |
| Cc1cccc(-c2noc(-c3ccc(F)cc3)n2)c1 | active |
| CCOCCCNC(=O)C(NC(=O)Cc1c[nH]c2ccccc12)c1ccc(OC)cc1 (stereo unspecified) | inactive |
| O=C(Cn1c(-c2ccccn2)nc2ccccc21)NCCN1CCOCC1 | inactive |
| CC(C)(C)NS(=O)(=O)c1ccc(NC(=O)NC2CCCCC2)cc1 | inactive |
| COCC(=O)N=Nc1c(O)[nH]c2ccccc12 | inactive |
| CC1CN(CCOc2ccccc2[N+](=O)[O-])CC(C)O1 (stereo unspecified) | inactive |
| Cc1ccc(Cc2nc(-c3cccc(C)c3)no2)cc1 | inactive |
| CCOc1cccc(-n2nnnc2-c2ccc(OC)cc2)c1 | inactive |
| O=C(c1cc(-c2cccs2)on1)N1CCCCC1 | active |
| O=C(Nc1ccc(Cl)cn1)c1ccc2c(c1)OCCO2 | inactive |
| C/C(CCC(=O)OC[C@H]1O[C@H](C#Cc2ccccc2)C=C[C@@H]1Oc1ccc(C)cc1)=N\OC[C@@H](O)[C@H]1O[C@@H]2OC(C)(C)O[C@@H]2[C@H]1O | inactive |
| Cc1ccc(Oc2cnn(-c3ccccc3)c(=O)c2Br)cc1 | inactive |
| COc1ccc(NC(=S)NCCNC(C)=O)cc1 | inactive |
| COc1ccc(CCNC(=O)c2ccc(CS(=O)(=O)c3ccc(Br)cc3)o2)cc1OC | inactive |
| Cc1cc(O)ccc1-c1cnc2ccccc2n1 | inactive |
| Cc1nc2cc(NC(=O)NCc3ccccc3)ccc2o1 | inactive |
| Cc1cccc(N=Nc2c(O)[nH]c3ccc(F)cc23)c1 | active |
| COc1ccc(CS(=O)/C(Cl)=C(/Cl)C(=O)Nc2ccc(OC)nc2)cc1 (stereo unspecified) | active |
| CC(=O)Nc1ccc(OCC(=O)NCc2ccc(C)cc2)cc1 | inactive |
| Cc1nc2ccc(NC(=O)C(F)(F)F)cc2o1 | inactive |
| Cc1cccc(N=Nc2c(C)[nH]n(-c3ccccc3)c2=O)c1 | inactive |
| Nc1ccc(SCCN2C(=O)c3ccccc3C2=O)cc1 | active |
| Cc1ccc(NC(=O)OCc2cncs2)cc1 | inactive |
| O=C(COc1ccccc1[N+](=O)[O-])NC1CC1 | inactive |
| Cc1ccc(-n2c(C)cc(C(=O)CSc3nnc4ccccn34)c2C)cc1 | active |
| CC(C)N1CCC(NC(=O)Nc2ccccc2)CC1 | inactive |
| CC(=O)Nc1cccc(-c2cnc3ccccc3n2)c1 | active |
| CCOc1ccc(C(=O)NC2CCN(CC(=O)NCc3cccs3)CC2)cc1 | inactive |
| CC(C)COC(=O)c1ccc(NC(=O)C2C3C=CC(C3)C2C(=O)O)cc1 (stereo unspecified) | active |
| O=C1CC(c2cccc(Cl)c2)CC(O)=C1C=Nc1ccccc1 (stereo unspecified) | inactive |
| COc1ccccc1N1CCN(C(=O)c2cc(-c3ccc(Br)cc3)on2)CC1 | inactive |
| CCCNC(=O)c1c(Cl)cnn1-c1ccc(C)cc1 | active |
| COC(=O)Nc1nc2ccc(Sc3ccccc3)cc2[nH]1 | active |
| Cc1c(C(=O)NCc2ccccc2)cnn1-c1ccccc1 | inactive |
| CCS(=O)(=O)Nc1cccc(-c2cc(-c3ccccc3)c3cc(C)ccc3n2)c1 | inactive |
| CCNC(=O)NNC(=O)C1CC(c2cccs2)=NO1 (stereo unspecified) | inactive |
